The values you see were collected from patent US6465613B1.

# Assayed system: human SRIF receptor type 2 (Homo sapiens, UniProt P30874)
# Sequence (P30874 whole entry): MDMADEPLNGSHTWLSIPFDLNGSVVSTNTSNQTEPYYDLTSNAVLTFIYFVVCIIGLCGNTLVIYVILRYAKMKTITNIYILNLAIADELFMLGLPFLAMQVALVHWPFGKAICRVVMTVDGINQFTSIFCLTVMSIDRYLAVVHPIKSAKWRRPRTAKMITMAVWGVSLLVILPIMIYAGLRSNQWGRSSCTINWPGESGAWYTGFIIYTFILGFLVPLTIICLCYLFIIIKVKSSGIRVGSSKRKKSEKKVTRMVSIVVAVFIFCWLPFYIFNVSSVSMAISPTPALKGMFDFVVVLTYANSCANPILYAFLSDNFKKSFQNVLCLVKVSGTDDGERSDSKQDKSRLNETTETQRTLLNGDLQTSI
Positions of bridges follow the written chain, without caps; N, C: chain ends. Non-standard residues stand in square brackets, D forms with d. Residues, ends and D or L forms follow the SMILES beside them. Dab = NCC[C@H](N)C(=O)O
Assay readout: pKd
The value called pKd is obtained by taking minus log10 of the concentration in mol/L.

| Molecule | Assayed system | pKd |
| --- | --- | --- |
| C[C@@H](O)[C@H](NC(=O)[C@@H]1CSSC[C@H](NC(=O)[C@H](CCN)NC(=O)[C@H](Cc2ccc(O)cc2)NC(=O)[C@H](CCN)NC(=O)[C@H](Cc2ccc(O)cc2)NC(=O)[C@@H](N)CCN)C(=O)N[C@@H](Cc2ccccc2)C(=O)N[C@H](Cc2c[nH]c3ccccc23)C(=O)N[C@@H](CCCCN)C(=O)N[C@@H]([C@@H](C)O)C(=O)N1)C(N)=O [JF-06-45] (H-[Dab]Y[Dab]Y[Dab]CF[dW]KTCT-NH2; disulfide 6-11) | human SRIF receptor type 2 (Homo sapiens, UniProt P30874) | 8.86 |
| C[C@@H](O)[C@H](NC(=O)[C@@H]1CSSC[C@H](NC(=O)[C@@H](CCCCN)NC(=O)[C@@H](Cc2ccc(O)cc2)NC(=O)[C@@H](CCCCN)NC(=O)[C@@H](Cc2ccc(O)cc2)NC(=O)[C@H](N)CCCCN)C(=O)N[C@@H](Cc2ccccc2)C(=O)N[C@H](Cc2c[nH]c3ccccc23)C(=O)N[C@@H](CCCCN)C(=O)N[C@@H]([C@@H](C)O)C(=O)N1)C(N)=O [JF-06-44] (H-[dK][dY][dK][dY][dK]CF[dW]KTCT-NH2; disulfide 6-11) | human SRIF receptor type 2 (Homo sapiens, UniProt P30874) | 9.06 |
| C[C@@H](O)[C@H](NC(=O)[C@@H]1CSSC[C@H](NC(=O)[C@H](CCCCN)NC(=O)[C@H](Cc2ccc(O)cc2)NC(=O)[C@H](CCCCN)NC(=O)[C@H](Cc2ccc(O)cc2)NC(=O)[C@H](N)CCCCN)C(=O)N[C@@H](Cc2ccccc2)C(=O)N[C@H](Cc2c[nH]c3ccccc23)C(=O)N[C@@H](CCCCN)C(=O)N[C@@H]([C@@H](C)O)C(=O)N1)C(N)=O [JF-05-59] (H-[dK]YKYKCF[dW]KTCT-NH2; disulfide 6-11) | human SRIF receptor type 2 (Homo sapiens, UniProt P30874) | 9.44 |

Let's switch to this molecule now.
Query: # query: pKd of entry C[C@@H](O)[C@H](NC(=O)[C@@H]1CSSC[C@H](NC(=O)[C@H](CCCNC(=N)N)NC(=O)[C@H](Cc2ccc(O)cc2)NC(=O)[C@H](CCCNC(=N)N)NC(=O)[C@H](Cc2ccc(O)cc2)NC(=O)[C@H](N)CCCNC(=N)N)C(=O)N[C@@H](Cc2ccccc2)C(=O)N[C@H](Cc2c[nH]c3ccccc23)C(=O)N[C@@H](CCCCN)C(=O)N[C@@H]([C@@H](C)O)C(=O)N1)C(N)=O [JF-05-81] (H-[dR]YRYRCF[dW]KTCT-NH2; disulfide 6-11)
Result: 9.55

----------
Positions of bridges follow the written chain, without caps; N, C: chain ends. Non-standard residues stand in square brackets, D forms with d. Residues, ends and D or L forms follow the SMILES beside them. Phe(4-NH2) = Nc1ccc(C[C@H](N)C(=O)O)cc1
Parameter 'readout' = pKd; parameter 'system' = human SRIF receptor type 3 (Homo sapiens).
Sequence (P32745 whole entry): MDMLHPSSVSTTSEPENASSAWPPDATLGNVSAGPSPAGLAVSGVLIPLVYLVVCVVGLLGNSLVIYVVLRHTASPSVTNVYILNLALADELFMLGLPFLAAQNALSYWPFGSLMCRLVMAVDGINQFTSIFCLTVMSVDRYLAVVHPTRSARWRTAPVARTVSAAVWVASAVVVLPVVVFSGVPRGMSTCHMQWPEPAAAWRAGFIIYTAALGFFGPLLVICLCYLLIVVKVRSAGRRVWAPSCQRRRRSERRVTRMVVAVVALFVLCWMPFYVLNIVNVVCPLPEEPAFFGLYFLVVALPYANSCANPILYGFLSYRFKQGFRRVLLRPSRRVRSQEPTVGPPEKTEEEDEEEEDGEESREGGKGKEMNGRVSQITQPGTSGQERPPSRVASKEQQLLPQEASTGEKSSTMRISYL
Reminder that pKd means the negative base-10 logarithm of the concentration expressed in mol/L.

Reference set (2 entries):
| Compound | pKd |
| --- | --- |
| C[C@@H](O)[C@H](NC(=O)[C@@H]1CSSC[C@H](NC(=O)[C@H](CCCCN)NC(=O)[C@H](Cc2ccc(N)cc2)NC(=O)[C@H](CCCCN)NC(=O)[C@H](Cc2ccc(N)cc2)NC(=O)[C@H](N)CCCCN)C(=O)N[C@@H](Cc2ccccc2)C(=O)N[C@H](Cc2c[nH]c3ccccc23)C(=O)N[C@@H](CCCCN)C(=O)N[C@@H]([C@@H](C)O)C(=O)N1)C(N)=O [JF-06-31] (H-[dK][Phe(4-NH2)]K[Phe(4-NH2)]KCF[dW]KTCT-NH2; disulfide 6-11) | 7.68 |
| C[C@@H](O)[C@H](NC(=O)[C@@H]1CSSC[C@H](NC(=O)[C@H](CCCNC(=N)N)NC(=O)[C@H](Cc2ccc(O)cc2)NC(=O)[C@H](CCCNC(=N)N)NC(=O)[C@H](Cc2ccc(O)cc2)NC(=O)[C@H](N)CCCNC(=N)N)C(=O)N[C@@H](Cc2ccccc2)C(=O)N[C@H](Cc2c[nH]c3ccccc23)C(=O)N[C@@H](CCCCN)C(=O)N[C@@H]([C@@H](C)O)C(=O)N1)C(N)=O [JF-05-81] (H-[dR]YRYRCF[dW]KTCT-NH2; disulfide 6-11) | 7.84 |

Kindly consider the entry below.
Query: Item under review: C[C@@H](O)[C@H](NC(=O)[C@@H]1CSSC[C@H](NC(=O)[C@@H](CCCCN)NC(=O)[C@@H](Cc2ccc(O)cc2)NC(=O)[C@H](N)CCCCN)C(=O)N[C@@H](Cc2ccccc2)C(=O)N[C@H](Cc2c[nH]c3ccccc23)C(=O)N[C@@H](CCCCN)C(=O)N[C@@H]([C@@H](C)O)C(=O)N1)C(N)=O [JF-06-50] (H-[dK][dY][dK]CF[dW]KTCT-NH2; disulfide 4-9) . Reported pKd?
Result: 8.31

----------
Positions of bridges follow the written chain, without caps; N, C: chain ends. Non-standard residues stand in square brackets, D forms with d. Residues, ends and D or L forms follow the SMILES beside them. Dab = NCC[C@H](N)C(=O)O
Measured Kd on UniProt P35346 follows.
Sequence (P35346 whole entry): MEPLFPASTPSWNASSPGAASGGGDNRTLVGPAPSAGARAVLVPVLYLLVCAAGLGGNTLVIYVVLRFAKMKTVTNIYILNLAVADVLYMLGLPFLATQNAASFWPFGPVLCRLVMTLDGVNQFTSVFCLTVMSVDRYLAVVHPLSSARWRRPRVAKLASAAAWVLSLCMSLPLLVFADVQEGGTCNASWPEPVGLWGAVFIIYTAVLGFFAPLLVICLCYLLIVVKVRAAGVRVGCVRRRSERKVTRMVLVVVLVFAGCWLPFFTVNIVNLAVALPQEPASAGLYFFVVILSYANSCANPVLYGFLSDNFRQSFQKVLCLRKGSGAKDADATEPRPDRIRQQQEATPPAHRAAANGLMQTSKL
# unit: nM | format: bare number

Here are 3 compounds together with their reported answers.
| Compound | Kd, nM |
| --- | --- |
| C[C@@H](O)[C@H](NC(=O)[C@@H]1CSSC[C@H](NC(=O)[C@@H](CCCCN)NC(=O)[C@@H](Cc2ccc(O)cc2)NC(=O)[C@@H](CCCCN)NC(=O)[C@@H](Cc2ccc(O)cc2)NC(=O)[C@H](N)CCCCN)C(=O)N[C@@H](Cc2ccccc2)C(=O)N[C@H](Cc2c[nH]c3ccccc23)C(=O)N[C@@H](CCCCN)C(=O)N[C@@H]([C@@H](C)O)C(=O)N1)C(N)=O [JF-06-44] (H-[dK][dY][dK][dY][dK]CF[dW]KTCT-NH2; disulfide 6-11) | 17 |
| C[C@@H](O)[C@H](NC(=O)[C@@H]1CSSC[C@H](NC(=O)[C@@H](CCCCN)NC(=O)[C@@H](Cc2ccc(O)cc2)NC(=O)[C@H](N)CCCCN)C(=O)N[C@@H](Cc2ccccc2)C(=O)N[C@H](Cc2c[nH]c3ccccc23)C(=O)N[C@@H](CCCCN)C(=O)N[C@@H]([C@@H](C)O)C(=O)N1)C(N)=O [JF-06-50] (H-[dK][dY][dK]CF[dW]KTCT-NH2; disulfide 4-9) | 20 |
| C[C@@H](O)[C@H](NC(=O)[C@@H]1CSSC[C@H](NC(=O)[C@H](CCCCN)NC(=O)[C@H](Cc2ccc(O)cc2)NC(=O)[C@H](CCCCN)NC(=O)[C@H](Cc2ccc(O)cc2)NC(=O)[C@H](N)CCCCN)C(=O)N[C@@H](Cc2ccccc2)C(=O)N[C@H](Cc2c[nH]c3ccccc23)C(=O)N[C@@H](CCCCN)C(=O)N[C@@H]([C@@H](C)O)C(=O)N1)C(N)=O [JF-05-59] (H-[dK]YKYKCF[dW]KTCT-NH2; disulfide 6-11) | 13.4 |

Then there is this compound:
Query: State the recorded Kd for this entry: C[C@@H](O)[C@H](NC(=O)[C@@H]1CSSC[C@H](NC(=O)[C@H](CCN)NC(=O)[C@H](Cc2ccc(O)cc2)NC(=O)[C@H](CCN)NC(=O)[C@H](Cc2ccc(O)cc2)NC(=O)[C@@H](N)CCN)C(=O)N[C@@H](Cc2ccccc2)C(=O)N[C@H](Cc2c[nH]c3ccccc23)C(=O)N[C@@H](CCCCN)C(=O)N[C@@H]([C@@H](C)O)C(=O)N1)C(N)=O [JF-06-45] (H-[Dab]Y[Dab]Y[Dab]CF[dW]KTCT-NH2; disulfide 6-11)
Result: 115
